Test: gradient 5% acetonitrile 3 min, to 50% in 2 min, to 85% in 15 min, held 3 min, 100 µL/min
Settings: column: Zorbax Extend-C18 2.1 x 50 mm; eluents: water / acetonitrile, 0.1% formic acid
# RP-LC retention time listing for each entry below

[
  {
    "molecule": "COc1cccc(-n2c(=O)c3sccc3n(Cc3nc(-c4ccc(F)c(Cl)c4)no3)c2=O)c1",
    "RP-LC retention time": "1060 s"
  },
  {
    "molecule": "Cc1nn(-c2ccccc2)c(C)c1S(=O)(=O)N1CCC(C(=O)Nc2ccc3c(c2)OCCO3)CC1",
    "RP-LC retention time": "914 s"
  },
  {
    "molecule": "COc1ccc(Cn2c(=O)c3sccc3n(Cc3nc(-c4ccc(C)cc4)no3)c2=O)cc1",
    "RP-LC retention time": "1060 s"
  },
  {
    "molecule": "O=C(NCc1ccccn1)C1c2ccccc2C(=O)N(Cc2ccccc2)C12CCCC2 (stereo unspecified)",
    "RP-LC retention time": "704 s"
  },
  {
    "molecule": "COc1cccc(N2CCN(S(=O)(=O)c3cc(-c4nc(C(C)C)cs4)cs3)CC2)c1",
    "RP-LC retention time": "1310 s"
  },
  {
    "molecule": "Cc1nn(-c2nc(-c3ccccc3)cs2)c(C)c1CC(=O)Nc1cccc(C(F)(F)F)c1",
    "RP-LC retention time": "1270 s"
  }
]

----------
Assay: gradient 5% acetonitrile 3 min, to 50% in 2 min, to 85% in 15 min, held 3 min, 100 µL/min
Settings: column: Zorbax Extend-C18 2.1 x 50 mm; eluents: water / acetonitrile, 0.1% formic acid
Measured RP-LC retention time by item

[
  {
    "molecule": "CC(C)c1ccc(NC(=O)CN2CCN(C(=O)Nc3ccc(Br)cc3)CC2=O)cc1",
    "scale unit": "s",
    "RP-LC retention time": 885
  },
  {
    "molecule": "COCCc1noc(C2CN(S(=O)(=O)c3cccc(F)c3)C2)n1",
    "scale unit": "s",
    "RP-LC retention time": 784
  },
  {
    "molecule": "Cc1sc(NC(=O)C2CCCCC2)nc1-c1ccc2c(c1)NC(=O)C(C)O2 (centres undefined)",
    "scale unit": "s",
    "RP-LC retention time": 940
  },
  {
    "molecule": "O=c1c2nnn(Cc3ccc(Cl)cc3)c2ncn1Cc1nc(-c2ccc3c(c2)OCO3)no1",
    "scale unit": "s",
    "RP-LC retention time": 982
  }
]

----------
Experiment: gradient 5% acetonitrile 3 min, to 50% in 2 min, to 85% in 15 min, held 3 min, 100 µL/min
Details: column: Zorbax Extend-C18 2.1 x 50 mm; eluents: water / acetonitrile, 0.1% formic acid
measured property: RP-LC retention time (s)

[
  {
    "compound": "CCCC(NC(=O)c1ccc(OC)cc1)C(=O)Nc1nc2ccccc2[nH]1 (stereo not given)",
    "scale unit": "s",
    "test result": 658
  },
  {
    "compound": "CCOc1ccc(C2C(C(=O)O)c3ccccc3C(=O)N2CCN2CCOCC2)cc1 (stereo not given)",
    "scale unit": "s",
    "test result": 649
  },
  {
    "compound": "COc1ccc(C(=O)c2cnc3ccc(OC)cc3c2N2CCOCC2)cc1",
    "scale unit": "s",
    "test result": 677
  },
  {
    "compound": "Cc1ccc(S(=O)(=O)N2CCC(OCc3noc(C4CCCO4)n3)CC2)cc1F (stereo not given)",
    "scale unit": "s",
    "test result": 936
  },
  {
    "compound": "COc1ccc(S(=O)(=O)Cc2nc(-c3ccc(C)cc3)no2)cc1OC",
    "scale unit": "s",
    "test result": 960
  },
  {
    "compound": "Cc1cc2nn(CC(=O)Nc3ccc4c(c3)OCCO4)c(=O)n2c(-c2ccc(F)cc2)n1",
    "scale unit": "s",
    "test result": 783
  },
  {
    "compound": "COc1ccc(S(=O)(=O)N2CCCN(c3ccc(=O)n(-c4ccc(C)c(C)c4)n3)CC2)cc1",
    "scale unit": "s",
    "test result": 903
  },
  {
    "compound": "Cc1cc(C(=O)N2c3ccccc3CC2c2nc(C3CC3)no2)nn1C (stereo not given)",
    "scale unit": "s",
    "test result": 929
  },
  {
    "compound": "COc1cc(C2=NN(C(C)=O)C(c3ccncc3)O2)cc(OC)c1OC(C)=O (stereo not given)",
    "scale unit": "s",
    "test result": 714
  },
  {
    "compound": "Cc1cccc(NS(=O)(=O)c2cc3n(c2)CCCNC3=O)c1",
    "scale unit": "s",
    "test result": 652
  }
]
